Each entry below lists one item and its recorded ED50 value.
# System: hamsters
# protocol_description: Antifertility in hamsters (termination of pregnancy, subcutaneous)
# Type: in vivo, hamster
# experimental_context: Mesocricetus auratus, sc, 288 h, dosed 3rd, 4th and 5th days of pregnancy, examined day 12, read-out: ED50 (dose required for termination of pregnancy in 50% of the hamsters)
Use mg/kg as the unit, but write only the number.

1) C[C@@H](C/C=C/C(=O)CCc1ccccc1)CCCC(C)(C)O [G] = 4

// field: ED50; key: C[C@@H](C/C=C/C(O)CCc1ccccc1)CCCC(C)(C)O (some centres unmarked) [R] ; value = 0.5

// field: ED50; key: CCCCCC(O)/C=C/C[C@H](C)CCCC(C)(C)O (some centres unmarked) [Q] ; value = 2

Data credit: patent US4243683A
